The reported numbers originate from the supplement of paper PMC10567573.

B1: TRAF3IP2 (parent)
chain: YGHDYPRAAYQQVIQPALPGQPLP

- Variants of: B1
- RUN_DESCRIPTION: protein stability index of a GFP-peptide fusion (GPS, HEK-293T) (PSI 1-6); higher = more stable;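 note: lentivirally expressed fusions sorted by FACS into six bins by GFP to DsRed ratio, PSI derived from sequencing read proportions per bin multiplied by bin number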
- RECORDED_CONDITIONS: c terminus: a fixed tail appended
MEASURED_PROPERTY: protein stability index
Answer as a number with no unit attached.

Solved cases below.
Q12C: 3.07
P16H: 1.57
Y5H: 3.73
V13W: 2.4
Y10F: 2.33
G20I: 1.58

### Prompt Using the record for P24E , report its protein stability index.
### Response 1.42
